These measurements were taken from paper PMC11819963.

STUDY_TARGET: hCA IX (Homo sapiens, UniProt Q16790)
EXPERIMENTAL_DETAILS: stopped-flow CO2 hydrase assay, hCA IX
Assay type: biochemical
ASSAY_SETUP: mean from three assays, errors ±5–10%
MEASUREMENT_LABEL: Ki

[in] Could you tell me which Ki is on file for C#CCOc1ccc(S(N)(=O)=O)cc1.[C-]#[O+].[C-]#[O+].[C-]#[O+].[C-]#[O+].[C-]#[O+].[C-]#[O+].[Co].[Co] ?
[out] 5.4 nM
